# Subject Of Test: T1, human SAS1B (Homo sapiens, UniProt Q6HA08)
# T1 construct: made in house; host or cells: E. coli
# T1 sequence (Q6HA08 24-431): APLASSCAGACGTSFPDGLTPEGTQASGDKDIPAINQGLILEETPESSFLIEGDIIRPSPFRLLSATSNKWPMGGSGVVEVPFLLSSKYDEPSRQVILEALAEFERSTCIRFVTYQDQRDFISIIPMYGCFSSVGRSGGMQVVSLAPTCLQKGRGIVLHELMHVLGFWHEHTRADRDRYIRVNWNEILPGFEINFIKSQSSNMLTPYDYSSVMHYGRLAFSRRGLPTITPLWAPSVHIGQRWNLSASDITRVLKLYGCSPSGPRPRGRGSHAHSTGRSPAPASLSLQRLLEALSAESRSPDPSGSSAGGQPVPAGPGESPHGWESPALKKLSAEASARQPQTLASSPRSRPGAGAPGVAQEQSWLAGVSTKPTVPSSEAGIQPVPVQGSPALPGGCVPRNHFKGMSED
# Experimental Details: Western blot of human SAS1B probed with anti-human SAS1B murine mAbs
# Assay type: binding
# Experimental Parameters: Table 1
Assay Readout: Specifically binds human SAS1B (and not mouse SAS1B)

>>> assay_value("SB5: mouse anti-human SAS1B monoclonal antibody, IgG2b; VH SEQ ID NO:16, VL SEQ ID NO:18 (antibody, listed as Mus musculus, V domains shown) VH: EVQLQQSGPELVKPGSSVKISCKPSGYTFTDYNMVWMKQSHGKSLEWIGAINPNNGGTTYNQKFKGKATLTVDKSSSTAYMELRSLTSEDSAVYYCAPNWDWFAYWGQGTLVTVSA VL: DVLMTQIPLSLPVSLGDQASISCRSSQSILHSNGNTYLEWYLQKPGQSPKLLIYKVSNRFSGVPDRFSGSGSGTDFTLKISRVEAEDLGVYYCFQGSHVPFTFGSGTKLEIK")
"Yes"
>>> assay_value("SB2: mouse anti-human SAS1B monoclonal antibody, IgG2b; VH SEQ ID NO:14, VL SEQ ID NO:15 (antibody, listed as Mus musculus, V domains shown) VH: EVQLQQSGPELVKPGSSVKISCKASGYTFTDYNMVWVKQSHGKSLEWIGAVNPNNGGTSYNQKFKGKATLTVDKSSSTAYMELRSLTSEDSAVYYCVPNWDWFAYWGQGTLVTVSA VL: DVLMTQTPLSLPVSLGDQASISCRSSQSLVHSNGNTYLEWYLQKPGQSPNLLIYKVSNRFSGVPDRFSGSGSGTDFTLKISRVEAEDLGVYYCFQGSHVPFTFGSGTKLEIK")
"Yes"
